A collection of compounds and their measured IC50
# System: Fadu
# experimentalDetails: In vitro activity test, inhibition of target cell proliferation (MTS)
# Assay type: cell-based
# conditionsUsed: Homo sapiens, FaDu, 96 h, read-out: IC50 for the inhibition of target cell proliferation in vitro, Fadu
Your answer is read as µM, so omit the unit and give the number.

> print(dat)
                                   compound  assayedsystem  endpointname  resultnumber
1  CCCN(C(=O)CO)[C@H]1CCc2c(C)c(F)cc3nc4c(c1c23)Cn1c-4cc2c(c1=O)COC(=O)[C@]2(O)CC [Compound 12]           Fadu          IC50       0.00013

INPUT: Quick check: IC50 of CC[C@@]1(O)C(=O)OCc2c1cc1n(c2=O)Cc2c-1nc1cc(F)c(C)c3c1c2[C@@H](N(C)C(=O)C1(O)CC1)CC3 [Compound 14] ?
OUTPUT: 0.053
